The reader will find reported pEC50 values listed item by item below.
study_system: cynomolgus LRP6 (cynomolgus, UniProt A0A2K5VCG3 20-1602)
Sequence (A0A2K5VCG3 entry or part of it): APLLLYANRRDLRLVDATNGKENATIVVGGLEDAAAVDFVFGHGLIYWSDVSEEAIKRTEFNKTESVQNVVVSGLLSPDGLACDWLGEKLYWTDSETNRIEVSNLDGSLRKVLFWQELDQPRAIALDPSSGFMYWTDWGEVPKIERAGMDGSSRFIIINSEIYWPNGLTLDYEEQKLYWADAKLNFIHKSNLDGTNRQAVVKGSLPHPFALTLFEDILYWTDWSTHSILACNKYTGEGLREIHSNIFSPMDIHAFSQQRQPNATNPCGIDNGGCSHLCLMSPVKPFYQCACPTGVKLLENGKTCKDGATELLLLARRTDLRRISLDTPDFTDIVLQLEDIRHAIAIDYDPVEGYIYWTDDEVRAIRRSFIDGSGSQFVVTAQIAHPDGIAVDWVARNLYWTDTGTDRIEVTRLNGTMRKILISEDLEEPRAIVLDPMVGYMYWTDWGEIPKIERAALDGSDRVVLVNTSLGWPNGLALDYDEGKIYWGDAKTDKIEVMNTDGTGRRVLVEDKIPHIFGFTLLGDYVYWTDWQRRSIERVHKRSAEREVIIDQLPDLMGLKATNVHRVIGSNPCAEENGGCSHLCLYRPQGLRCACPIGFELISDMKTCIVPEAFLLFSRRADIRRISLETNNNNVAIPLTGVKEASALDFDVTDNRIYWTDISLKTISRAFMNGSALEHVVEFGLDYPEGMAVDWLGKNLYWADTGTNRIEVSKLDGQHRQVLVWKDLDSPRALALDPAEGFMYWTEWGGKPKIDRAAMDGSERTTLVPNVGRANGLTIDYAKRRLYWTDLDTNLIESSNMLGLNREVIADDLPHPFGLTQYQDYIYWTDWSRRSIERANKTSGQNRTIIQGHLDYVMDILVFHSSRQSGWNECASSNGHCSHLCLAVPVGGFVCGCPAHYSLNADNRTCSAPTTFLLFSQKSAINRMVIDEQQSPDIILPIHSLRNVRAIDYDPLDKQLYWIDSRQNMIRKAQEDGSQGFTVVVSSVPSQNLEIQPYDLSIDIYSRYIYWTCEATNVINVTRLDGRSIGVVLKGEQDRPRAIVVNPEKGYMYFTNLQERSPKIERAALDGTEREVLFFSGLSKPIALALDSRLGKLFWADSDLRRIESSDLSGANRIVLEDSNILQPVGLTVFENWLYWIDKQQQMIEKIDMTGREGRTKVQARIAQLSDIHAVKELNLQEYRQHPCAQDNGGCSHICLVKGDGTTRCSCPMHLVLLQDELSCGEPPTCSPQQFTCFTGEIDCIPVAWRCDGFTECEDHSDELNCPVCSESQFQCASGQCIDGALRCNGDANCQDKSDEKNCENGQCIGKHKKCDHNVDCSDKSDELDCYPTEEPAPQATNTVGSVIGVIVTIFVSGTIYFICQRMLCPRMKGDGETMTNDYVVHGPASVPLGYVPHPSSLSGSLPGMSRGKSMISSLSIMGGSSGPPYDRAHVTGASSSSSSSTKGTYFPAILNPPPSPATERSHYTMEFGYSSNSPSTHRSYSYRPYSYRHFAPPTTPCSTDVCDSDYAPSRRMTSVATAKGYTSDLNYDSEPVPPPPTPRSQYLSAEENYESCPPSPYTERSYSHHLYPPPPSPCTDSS
test_description: FACS on HEK293T/17 cells transiently transfected with cynomolgus LRP6 (Example 3); Fab or IgG format not stated on the sheet
Notebook: values listed as pEC50 are -log10 of the concentration (mol/L).

Please review the following examples before continuing.
binder | readout_value
MOR08168 Fab (Fab, V domains shown, HuCAL Fab expressed in E. coli; also called Propeller 1 anti-LRP6 Fab MOR08168) VH: QVQLVESGGGLVQPGGSLRLSCAASGFTFSDYVINWVRQAPGKGLEWVSGISWSGVNTHYADSVKGRFTISRDNSKNTLYLQMNSLRAEDTAVYYCARLGATANNIRYKFMDVWGQGTLVTVSS VL: DIELTQPPSVSVAPGQTARISCSGDSLRNKVYWYQQKPGQAPVLVIYKNNRPSGIPERFSGSNSGNTATLTISGTQAEDEADYYCQSYDGQKSLVFGGGTKLTVL | 9.06
MOR08545 Fab (Fab, V domains shown, also called Propeller 1 anti-LRP6 Fab MOR08545) VH: QVQLVESGGGLVQPGGSLRLSCAASGFTFSVNGMHWVRQAPGKGLEWVSVIDGMGHTYYADSVKGRFTISRDNSKNTLYLQMNSLRAEDTAVYYCARYDYIKYGAFDPWGQGTLVTVSS VL: DIELTQPPSVSVAPGQTARISCSGDNIGSKYVHWYQQKPGQAPVLVIYGDSNRPSGIPERFSGSNSGNTATLTISGTQAEDEADYYCTRTSTPISGVFGGGTKLTVLG | 9.52
MOR08473 Fab (Fab, V domains shown, also called Propeller 3 anti-LRP6 Fab MOR08473) VH: QVQLVESGGGLVQPGGSLRLSCAASGFTFSSYGMSWVRQAPGKGLEWVSNISNDGHYTYYADSVKGRFTISRDNSKNTLYLQMNSLRAEDTAVYYCARFQASYLDIMDYWGQGTLVTVSS VL: DIELTQPPSVSVAPGQSITISCSGDNIGSKYVHWYQQKPGQAPVLVIYNDSNRPSGIPERFSGSNSGNTATLTISGTQAEDEADYYCQAWGDNGTRVFGGGTKLTVLG | 9.28
MOR08193 Fab (Fab, V domains shown, also called Propeller 3 anti-LRP6 Fab MOR08193) VH: QVQLKESGPALVKPTQTLTLTCTFSGFSLSNRGGGVGWIRQPPGKALEWLAWIDWDDDKSYSTSLKTRLTISKDTSKNQVVLTMTNMDPVDTATYYCARMHLPLVFDSWGQGTLVTVSS VL: DIVLTQSPATLSLSPGERATLSCRASQFIGSRYLAWYQQKPGQAPRLLIYGASNRATGVPARFSGSGSGTDFTLTISSLEPEDFAVYYCQQYWSIPITFGQGTKVEIKR | 9.70

Qu. Form field: reported pEC50 of MOR06706 Fab (Fab, V domains shown, also called Propeller 1 anti-LRP6 Fab MOR06706) VH: QVQLVESGGGLVQPGGSLRLSCAASGFTFSDYAIHWVRQAPGKGLEWVSGISYSGSSTHYADSVKGRFTISRDNSKNTLYLQMNSLRAEDTAVYYCARGSHGNIMAKRYFDFWGQGTLVTVSS VL: DIELTQPPSVSVAPGQTARISCSGDNIRKKYVYWYQQKPGQAPVLVIYEDSKRPSGIPERFSGSNSGNTATLTISGTQAEDEADYYCSTADSGINNGVFGGGTKLTVL
Ans. 9.34
